Please respond with reported EC50 of peptide for every item in the list.
Target: T1, MAGE-A1 peptide on HLA-A*02:01 (human)
T1 peptide: KVLEYVIKV
Experiment: JKR9 reporter + peptide-loaded T2, 16 h; full-length, on cells
Report the value in nM with no unit label.

query: Reported EC50 of peptide for A1A2-M01-622 (TCR, V domains shown) Valpha: GEDVEQSLFLSVREGDSSVINCTYTDSSSTYLYWYKQEPGAGLQLLTYIFAFESMKQDQRLTVLLNKKDKHLSLRIADTQTGDSAIYFCAGSGGGTDKLIFGTGTRLQVFP Vbeta: GAVVSQHPSWVICKSGTSVKIECRSLDFEATTMFWYRQFPKQSLMLMATTDYGSKATYEQGVEKDKFLINHASLTLSTLTVTSAHPEDSSFYICSAREPGQGPWEQYFGPGTRLTVT : what is it?
result: 17.6

query: Field entry: A1A2-M01-624 (TCR, V domains shown) Valpha: GEDVEQSLFLSVREGDSSVINCTYQYGMSTYLYWYKQEPGAGLQLLTYIFSFMDMKQDQRLTVLLNKKDKHLSLRIADTQTGDSAIYFCAGSGGGTDKLIFGTGTRLQVFP Vbeta: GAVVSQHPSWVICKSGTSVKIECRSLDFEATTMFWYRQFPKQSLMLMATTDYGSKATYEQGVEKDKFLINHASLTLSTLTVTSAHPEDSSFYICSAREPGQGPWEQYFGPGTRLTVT
result: 25.9
